Target: Aβ42 aggregation (Homo sapiens, UniProt P05067)
Construct: expressed in transfected cells; host or cells: E. coli BL21 (DE3), pET vector
Sequence (P05067 672-713): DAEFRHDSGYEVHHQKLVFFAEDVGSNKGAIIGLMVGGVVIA
Assay: Thioflavin S assay of Aβ42 aggregation in E. coli cells overexpressing Aβ42
Assay type: cell-based, Escherichia coli
Settings: read-out: Aβ42 inhibition %
Metric: inhibition at 50 µM (%)
Please reply with the bare figure in % and do not write the unit itself.

Examples with answers:
# Compound, Metric, Units text, Observed value
measured = [
    ("O=c1c2ccccc2oc2cc3c(cc12)COc1ccc(OC(F)(F)F)cc1-3 [Compound 11h]", "inhibition at 50 µM", "%", 41),
    ("COc1ccc2c(=O)c3cc4c(cc3oc2c1)-c1ccccc1OC4 [Compound 11b]", "inhibition at 50 µM", "%", 22),
    ("COc1ccc2c(c1)-c1cc3oc4cc(OC)cc(OC)c4c(=O)c3cc1CO2 [Compound 11o]", "inhibition at 50 µM", "%", 33),
    ("COc1cc(OC)c2c(=O)c3cc4c(cc3oc2c1)-c1ccccc1OC4 [Compound 11e]", "inhibition at 50 µM", "%", 36),
]

Consider the additional compound presented here.
[ask] So what does the record say about inhibition at 50 µM for C#CCOc1ccc(OC(F)(F)F)cc1/C=C/c1cc(=O)c2ccc(OC)cc2o1 ?
[reply] 20

###

Assay: in vitro
Settings: PAMPA, pH 7.4
Metric: Papp at 2.5 h (×10⁻⁶ cm/s)
Provide the reading as a plain figure in ×10⁻⁶ cm/s.

[ask] Entry under review: CN(C)CCCN1c2ccccc2Sc2ccccc21 [Promazine, reference compound] . Reported Papp at 2.5 h?
[reply] 15.4

###

Target: Aβ42 aggregation (Homo sapiens)
Construct: expressed in transfected cells; host or cells: E. coli BL21 (DE3), pET vector
Assay: Thioflavin S assay of Aβ42 aggregation in E. coli cells overexpressing Aβ42
Assay type: cell-based, Escherichia coli
Conditions: read-out: Aβ42 inhibition %
Metric: inhibition at 50 µM (%)
Express the result in % but write the number alone.

Consider the worked cases shown below.
# Compound, inhibition at 50 µM [%]
measured = [
    ("COc1ccc2c(c1)-c1cc3oc4ccccc4c(=O)c3cc1CO2 [Compound 11f]", 36),
    ("COc1ccc2c(=O)c3cc4c(cc3oc2c1)-c1cc(OC(F)(F)F)ccc1OC4 [Compound 11p]", 29),
    ("C#CCOc1ccc(OC)cc1/C=C/c1cc(=O)c2ccc(OC)c(OC)c2o1", 40),
    ("C#CCOc1ccccc1/C=C/c1cc(=O)c2c(OC)cccc2o1", 33),
]

[ask] What value of inhibition at 50 µM has been reported for the following compound? COc1ccc2c(c1)-c1cc3oc4cc(OC)ccc4c(=O)c3cc1CO2 [Compound 11l]
[reply] 40

[ask] Follow-up item: COc1ccc2c(=O)c3cc4c(cc3oc2c1)-c1cc(Cl)cc(Br)c1OC4 [Compound 11s]
[reply] 46

[ask] Next compound: COc1ccc2c(c1)-c1cc3oc4c(OC)c(OC)ccc4c(=O)c3cc1CO2 [Compound 11n]
[reply] 34

[ask] Cool, now C#CCOc1ccc(Cl)cc1/C=C/c1cc(=O)c2ccccc2o1
[reply] 11

[ask] Subsequent entry: C#CCN(CC#C)c1ccccc1/C=C/c1cc(=O)c2ccccc2o1
[reply] 36

Data provenance is paper PMC12818745.
